test_details: Zeta-potential measurement
Type: physicochemical
condition_info: zeta-potential of peptide; source data of Figure 2C
quantity_name: Zeta-Potential / mV (mV)
Reply with just the number (in mV).

These recorded examples may help you get a feel for the data.
KIKIQINMWWWQ: 9.633
KIKIQIII: 19.13
KVKVQVVV: 1.657

We now examine a further substance.
Requested field: Zeta-Potential / mV. Item: CKIKQIIRGD
13.2

###

Each entry below carries its recorded Rel-EFC.
Test system: HIV-1 infection of TZM-bl cells
test_details: HIV-1 infectivity enhancement assay, β-galactosidase luminescence
Format: cell-based
condition_info: 1.3 µM peptide; infection relative to EF-C (QCKIKQIINMWQ = 1)

These recorded examples may help you get a feel for the data.
RGDSGGGGGGKIKIQIC: 0,87
KIKQIINM: 0,45
KIKIQINMWWWQ: 2,75
KLKQLL: 0,01
MKIKIQINMWQ: 0,42

Requested field: Rel-EFC. Item: CRFRVPF
0,02

Requested field: Rel-EFC. Item: EIEIEIEI
0,02

Requested field: Rel-EFC. Item: KIKIKIKIYYYY
1,38

Requested field: Rel-EFC. Item: HHHHKIKIQINMYYYY
1,11

Requested field: Rel-EFC. Item: KFKFEFEF
0,03

Requested field: Rel-EFC. Item: KIKIQINAWQ
0,54

Requested field: Rel-EFC. Item: MKFKFQF
0,06

Requested field: Rel-EFC. Item: CKIKIQINMWQ
0,7

Requested field: Rel-EFC. Item: CQFQFQF
0,35

###

System: HIV-1 infection of TZM-bl cells
test_details: HIV-1 infectivity enhancement assay, β-galactosidase luminescence
Assay type: cell-based
condition_info: HIV-1 infection of TZM-bl cells, infection rate relative to EF-C, log10; source data of Figure 2C
quantity_name: Log10 Infection Rel EF-C
Quick one: just the number, no unit, thanks!

These recorded examples may help you get a feel for the data.
KIKIQINMWQ: -0.5276
KVKGVGK: -1.587
KIKIQINMWWWQ: 0.4391

Requested field: Log10 Infection Rel EF-C. Item: KIKIKIKIYYYY
0.1402

Requested field: Log10 Infection Rel EF-C. Item: CKIKQIINM
-0.3035

Requested field: Log10 Infection Rel EF-C. Item: KNERIKNERI
-1.888

Requested field: Log10 Infection Rel EF-C. Item: EIEIEIEI
-1.748

Requested field: Log10 Infection Rel EF-C. Item: CKFKQFFNM
-0.3892

Requested field: Log10 Infection Rel EF-C. Item: QCKIKQIINMWQ [reference compound]
0

Requested field: Log10 Infection Rel EF-C. Item: CKAKAQA
-1.501

Requested field: Log10 Infection Rel EF-C. Item: CKFKFQFNMW
-0.01766

Requested field: Log10 Infection Rel EF-C. Item: KVKVQVV
-2.04

Requested field: Log10 Infection Rel EF-C. Item: KLKQLL
-2.131

Requested field: Log10 Infection Rel EF-C. Item: QCKIKQIINM
-0.4555

Requested field: Log10 Infection Rel EF-C. Item: CQFQFQF
-0.4519

Requested field: Log10 Infection Rel EF-C. Item: EIEIQINM
-1.44

Requested field: Log10 Infection Rel EF-C. Item: HLHLPLL
-1.9991

Requested field: Log10 Infection Rel EF-C. Item: KYKYQY
-1.9887

###

test_details: Aggregate analysis by widefield fluorescence microscopy
Type: physicochemical
condition_info: Fig S8 panels A, C
Method: 4 µL of 1 mg/mL peptide fibrils solution is added to a 20 µL, 50 µM ThT–solution in PBS. The mixture is incubated for 15 min at RT to allow binding of ThT dye with β–sheet rich structures. […] Fluorescence spectra were recorded on an Infinite® M1000 PRO microplate reader (Tecan) at λem = 488 nm upon excitation at λex = 440 nm with 10 nm bandwidths and multiple reads per well (3×3). […] Furthermore, fluorescence microscopy was conducted by staining 1 µL preformed fibrils (1 mg/mL) with 9 µL ThT (50 µM). […]
Consider the cut-off 2. If the recorded log Avg Area in 3 * ( (1330 µm *1330 µm)) is strictly smaller, the label is yes (1); if not, the label is no (0).

KIKQIIN [JGA3]: yes (1)
CHLHLQL [CN9]: no (0)
HHHHKIKIKIKIWWWW [TM4]: yes (1)

Given the entry KIKQIINMWQ [JG2] , would its reported log Avg Area in 3 * ( (1330 µm *1330 µm)) be below 2?
no (0)

Given the entry CKFKQFFNM [CK14] , would its reported log Avg Area in 3 * ( (1330 µm *1330 µm)) be below 2?
yes (1)

Given the entry KIKIQIN [JGB3] , would its reported log Avg Area in 3 * ( (1330 µm *1330 µm)) be below 2?
no (0)

###

Test system: HIV-1 infection of TZM-bl cells
test_details: HIV-1 infectivity enhancement assay, β-galactosidase luminescence
Assay type: cell-based
condition_info: HIV-1 infection relative to EF-C; Fig 23 plot, panels A and B; mean of 3 values
Each entry below carries its recorded Inf. rel. EF-C.
Quick one: just the number, no unit, thanks!

These recorded examples may help you get a feel for the data.
KIKIQINMWQRGD: 0.008366
QCKAKAQANM: 0.02465
CRLRVGVS: 0.04346
CKAKAQANM: 0.01839

Requested field: Inf. rel. EF-C. Item: KAKAQANM
0.02204

###

System: HIV-1 infection of TZM-bl cells
test_details: HIV-1 infectivity enhancement assay, β-galactosidase luminescence
Type: cell-based
condition_info: infectivity class (low / medium / high) of each library peptide; main list in c1-c6, same classes repeated in sub-lists of sequences containing the hydrophobicity/charge patterns P+,H0,P+,H0,P0,H0,P0; P+,H0,P0,H0,P0,H0,P0; P+,H0,P0,H0
quantity_name: infectivity

These recorded examples may help you get a feel for the data.
KIKIQINMW [JGB1 /TM85]: high
KFKFQFNMW [BL5 / KB13]: medium
KIKIQINAWQ [JR3-II]: medium
QCKIKQII [CK6]: low
CKAKAQA [TM155]: low
KAKQAANMWQ [JG6]: low
HIHIQIC [CN12]: medium
HRRHFRHKITKKK [CN29]: low

We now examine a further substance.
Requested field: infectivity. Item: CKIKIQINMWQ [MG1]
medium

###

test_details: Aggregate analysis by widefield fluorescence microscopy
Format: physicochemical
condition_info: Fig S8 panels A, C
quantity_name: log Avg Area in 3 * ( (1330 µm *1330 µm))
Quick one: just the number, no unit, thanks!

These recorded examples may help you get a feel for the data.
CKFKFQFW [TM72]: 1.449
HHHHKIKIKIKIYYYY [TM6]: 1.855
RGDSGGGGGGKIKIQIC [TM114 / RC17]: 2.572

Requested field: log Avg Area in 3 * ( (1330 µm *1330 µm)). Item: CKWKWQW [KB4]
1.982

Requested field: log Avg Area in 3 * ( (1330 µm *1330 µm)). Item: CKIKIQI [MG3b]
1.7688

Requested field: log Avg Area in 3 * ( (1330 µm *1330 µm)). Item: QCKIKQIINMWQ [reference compound]
1.856

Requested field: log Avg Area in 3 * ( (1330 µm *1330 µm)). Item: CQFQFQF [QBL4]
1.864

Requested field: log Avg Area in 3 * ( (1330 µm *1330 µm)). Item: KFKFQFNMWQ [JG4]
2.778

Requested field: log Avg Area in 3 * ( (1330 µm *1330 µm)). Item: HIHIQIC [CN12]
2.874

Requested field: log Avg Area in 3 * ( (1330 µm *1330 µm)). Item: CKFKFQFNM [BL3]
1.299

Requested field: log Avg Area in 3 * ( (1330 µm *1330 µm)). Item: CKFKQFF [CK15]
3.411

Requested field: log Avg Area in 3 * ( (1330 µm *1330 µm)). Item: KIKIQIC [TM112 / CN11]
1.37

Requested field: log Avg Area in 3 * ( (1330 µm *1330 µm)). Item: CKFKFQF [BL4]
1.937

Requested field: log Avg Area in 3 * ( (1330 µm *1330 µm)). Item: QCKIKIQINMWQ [EF-C opt]
1.327

Requested field: log Avg Area in 3 * ( (1330 µm *1330 µm)). Item: CKAKAQANMWQ [BL8]
2.933

Requested field: log Avg Area in 3 * ( (1330 µm *1330 µm)). Item: CKIKQIINMWQ [MG5a / CK17]
2.263
